# Test target: rabbit lung ACE (Oryctolagus cuniculus, UniProt P12822)
# Construct: from tissue; host or cells: rabbit lung
# Sequence (P12822 34-1310): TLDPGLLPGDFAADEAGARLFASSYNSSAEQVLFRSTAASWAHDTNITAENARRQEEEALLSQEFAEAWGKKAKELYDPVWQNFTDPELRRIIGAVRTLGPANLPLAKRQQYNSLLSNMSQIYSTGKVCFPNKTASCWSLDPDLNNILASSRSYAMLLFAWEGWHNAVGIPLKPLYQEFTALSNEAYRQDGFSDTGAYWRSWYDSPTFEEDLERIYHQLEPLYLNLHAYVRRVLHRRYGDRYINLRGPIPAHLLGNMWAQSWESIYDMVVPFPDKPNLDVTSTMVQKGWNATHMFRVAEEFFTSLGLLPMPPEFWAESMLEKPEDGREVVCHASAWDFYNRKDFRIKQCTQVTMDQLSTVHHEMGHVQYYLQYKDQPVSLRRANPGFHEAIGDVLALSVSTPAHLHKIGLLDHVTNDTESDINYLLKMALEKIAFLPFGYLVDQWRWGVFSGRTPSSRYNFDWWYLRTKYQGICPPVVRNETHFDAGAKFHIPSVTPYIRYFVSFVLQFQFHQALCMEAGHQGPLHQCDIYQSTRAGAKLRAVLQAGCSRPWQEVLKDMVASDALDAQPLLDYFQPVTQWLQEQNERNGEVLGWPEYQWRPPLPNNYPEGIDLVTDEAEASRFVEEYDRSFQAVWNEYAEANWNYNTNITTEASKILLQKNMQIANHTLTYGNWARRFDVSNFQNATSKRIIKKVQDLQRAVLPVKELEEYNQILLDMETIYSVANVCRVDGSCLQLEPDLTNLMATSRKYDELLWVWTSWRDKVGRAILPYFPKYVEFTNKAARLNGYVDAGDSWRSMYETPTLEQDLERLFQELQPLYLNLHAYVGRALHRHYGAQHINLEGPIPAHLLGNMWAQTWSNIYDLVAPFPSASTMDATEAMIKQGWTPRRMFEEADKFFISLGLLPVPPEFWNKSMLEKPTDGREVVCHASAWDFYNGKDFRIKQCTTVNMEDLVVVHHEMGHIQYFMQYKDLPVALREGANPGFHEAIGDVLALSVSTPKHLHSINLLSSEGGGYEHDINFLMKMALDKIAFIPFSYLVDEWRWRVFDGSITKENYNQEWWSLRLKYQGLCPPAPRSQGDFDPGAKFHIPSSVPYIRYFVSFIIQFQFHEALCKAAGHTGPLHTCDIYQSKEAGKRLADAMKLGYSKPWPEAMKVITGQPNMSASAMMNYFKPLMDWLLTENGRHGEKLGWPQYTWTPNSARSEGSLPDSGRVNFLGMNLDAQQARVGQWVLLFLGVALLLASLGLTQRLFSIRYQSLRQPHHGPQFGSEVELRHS
# Procedure text: Inhibition of rabbit lung ACE by the method of Friedland and Silverstein
# Type: biochemical
# Study conditions: rabbit lung ACE; method of Friedland and Silverstein; read-out: IC50 (M) = Concentration inhibiting 50% of the activity of rabbit lung ACE
Observation type: IC50 (M)

a. NCCCC[C@H](N[C@@H](CCc1ccccc1)C(=O)O)C(=O)N1CCC[C@H]1C(=O)O
b. NCCCC[C@H](N[C@@H](CCC1CCCCC1)C(=O)O)C(=O)N(CC(=O)O)C1CCCC1
Task: Which one would you say has the larger IC50 value: a , or b ? Pick one; state its label.
Output: a
(a: 1.1e-09 M, b: 1e-10 M)
